Each record here notes measured photoluminescence quantum yield.
experiment: photoluminescence quantum yield (fraction); solvent given as SMILES; conditions: in C1CCCCC1
The answer should be written as a number, with no unit following it.

The examples below pair each entry with its known result.
[
  {
    "smiles.notation": "Nc1ccc2cn[nH]c2c1",
    "photoluminescence quantum yield": 0.34
  },
  {
    "smiles.notation": "Cc1cc(C)c(B(c2c(C)cc(C)cc2C)c2cc3ccc4ccccc4c3c3c2cc(N(C)C)c2ccccc23)c(C)c1",
    "photoluminescence quantum yield": 0.23
  }
]

For the next question, use this compound.
Q. Item `CC(C)(C)NC1=C2C=CC=[N+]2[B-](F)(F)n2cccc21` has what recorded photoluminescence quantum yield?
A. 0.63

* * *

assay: photoluminescence quantum yield (fraction); solvent given as SMILES; conditions: in ClCCl
Give Satisfied when the value for photoluminescence quantum yield is at least 0.5. Give Not satisfied when it is less.

Examples with answers:
[
  {
    "molecule": "COCc1ncc(-c2c3ccccc3c(-c3cnc(COC)nc3)c3ccccc23)cn1",
    "group": "Satisfied"
  },
  {
    "molecule": "CN(C)c1ccc(C2=C3C=C(c4ccc(C=O)cc4)S[C@]34c3ccccc3[C@H]2c2ccccc24)cc1",
    "group": "Satisfied"
  },
  {
    "molecule": "F[B-]1(F)n2cccc2C(c2c3ccccc3cc3ccccc23)=C2C=CC=[N+]21",
    "group": "Not satisfied"
  },
  {
    "molecule": "COc1ccc(C#Cc2nc3ccccc3nc2-c2csc(OC)c2)cc1",
    "group": "Not satisfied"
  },
  {
    "molecule": "CCCCCCc1ccc2c3c(ccc2c1)O[B-](c1ccccc1)(c1ccccc1)[N+](c1ccc([N+]2=Cc4c(ccc5cc(CCCCCC)ccc45)O[B-]2(c2ccccc2)c2ccccc2)cc1)=C3",
    "group": "Not satisfied"
  }
]

Q. Can `CN(C)c1cc(C#N)c(N(C)C)c(C#N)c1` be said to have photoluminescence quantum yield at or above 0.5?
A. Satisfied

Q. Can CCCCC(CC)Cn1c2cc(C#N)ccc2c2ccc(C#Cc3cc(C#Cc4ccc5c6ccc(C#N)cc6n(CC(CC)CCCC)c5c4)c4ccc5c(C#Cc6ccc7c8ccc(C#N)cc8n(CC(CC)CCCC)c7c6)cc(C#Cc6ccc7c8ccc(C#N)cc8n(CC(CC)CCCC)c7c6)c6ccc3c4c65)cc21 (stereo unspecified) be said to have photoluminescence quantum yield at or above 0.5?
A. Satisfied

Q. Can `C(S/C=C/c1ccc(-c2ccc(/C=C/SC=C3CCCC3)cc2)cc1)=C1CCCC1` be said to have photoluminescence quantum yield at or above 0.5?
A. Not satisfied

Q. Can `CCCCc1ccc2c(c1)c1ccc3cccc4c3c1c1c2c2cccc3ccc5c6cc(CCCC)ccc6c4c1c5c32` be said to have photoluminescence quantum yield at or above 0.5?
A. Not satisfied

Q. Can `CN1C(=O)c2cccc3c(-n4c5ccccc5c5ccccc54)ccc(c23)C1=O` be said to have photoluminescence quantum yield at or above 0.5?
A. Not satisfied

Q. Can `O=C(c1ccc(N(c2ccccc2)c2ccccc2)cc1)[C@H]1[C@H](c2ccccc2)C[C@](O)(c2ccccn2)C[C@]1(O)c1ccccn1` be said to have photoluminescence quantum yield at or above 0.5?
A. Not satisfied

* * *

Each record here notes measured photoluminescence quantum yield.
assay: photoluminescence quantum yield (fraction); solvent given as SMILES; conditions: in ClCCl
The answer should be written as a number, with no unit following it.

[
  {
    "smiles.notation": "O=C1CCCC2=C1CC1=C(CCCC1=O)N2NC(=O)c1ccccc1",
    "parameter": "photoluminescence quantum yield",
    "data.value": 0.31
  }
]

Q. Item `CC(=O)c1c(N[C@@H](Cc2ccccc2)C(=O)O)c2ccc(N(C)C)cc2oc1=O` has what recorded photoluminescence quantum yield?
A. 0.0026

Q. Item `c1ccc(N(c2ccccc2)c2ccc(-c3ccncn3)cc2)cc1` has what recorded photoluminescence quantum yield?
A. 0.55

Q. Item `Cc1ccc(C2=C(c3ccc(C)cc3)c3cccc4c3c(cc3nc5ccccc5nc34)O2)cc1` has what recorded photoluminescence quantum yield?
A. 0.43

* * *

assay: photoluminescence quantum yield (fraction); solvent given as SMILES; settings: in Cc1ccccc1
parameter: photoluminescence quantum yield

The examples below pair each entry with its known result.
[
  {
    "smiles.notation": "O=Cc1nc2ccc(C#Cc3ccc(N(c4ccccc4)c4ccccc4)cc3)cc2s1",
    "photoluminescence quantum yield": 0.57
  },
  {
    "smiles.notation": "O=C(c1ccc(N2c3ccccc3Oc3ccccc32)cc1)c1ccc(N2c3ccccc3Oc3ccccc32)cc1",
    "photoluminescence quantum yield": 0.44
  },
  {
    "smiles.notation": "Cc1ccc(-c2c3ccc([nH]3)c3nc(c(-c4ccc(C#N)cc4)c4ccc([nH]4)c4ccc([nH]4)c(-c4ccc(C)cc4)c4ccc2o4)C=C3)cc1",
    "photoluminescence quantum yield": 0.166
  },
  {
    "smiles.notation": "COc1cc(OC)cc(C2=C(c3cc(OC)c(OC)c(OC)c3)C3=Nc4c(-c5cc(OC)c(OC)c(OC)c5)c(-c5cc(OC)cc(OC)c5)c(-c5ccc(C(C)(C)C)cc5)n4[B-](F)(F)[N+]3=C2c2ccc(C(C)(C)C)cc2)c1",
    "photoluminescence quantum yield": 0.01
  }
]

Q. Item `CC(C)(C)c1ccc(N(c2ccc(C(C)(C)C)cc2)c2ccc(S(=O)(=O)c3ccc(N(c4ccc(C(C)(C)C)cc4)c4ccc(C(C)(C)C)cc4)cc3)cc2)cc1` has what recorded photoluminescence quantum yield?
A. 0.65

* * *

experiment: photoluminescence quantum yield (fraction); solvent given as SMILES; settings: in ClCCl
Give 1 when the value for photoluminescence quantum yield is at least 0.1. Give 0 when it is less.

Examples with answers:
[
  {
    "compound": "CC(C)(C)c1ccc2c(c1)c1cc(C(C)(C)C)ccc1n2-c1ccc(N(c2ccc(-c3ccc(-c4ccc(N(c5ccc(-n6c7ccc(C(C)(C)C)cc7c7cc(C(C)(C)C)ccc76)cc5)c5ccc(-n6c7ccc(C(C)(C)C)cc7c7cc(C(C)(C)C)ccc76)cc5)cc4)c4nsnc34)cc2)c2ccc(-n3c4ccc(C(C)(C)C)cc4c4cc(C(C)(C)C)ccc43)cc2)cc1",
    "group": 0
  },
  {
    "compound": "CCN(CC)c1ccc2cc(/C=C/C(=O)/C=C(O)/C=C/c3cc4ccc(N(CC)CC)cc4oc3=O)c(=O)oc2c1",
    "group": 1
  },
  {
    "compound": "COc1cc2c(cc1OC)C1=C[C@H](c3ccc(C)cc3)C3(C(C#N)=C(C#N)N1CC2)c1cc(Br)ccc1-c1ccc(Br)cc13",
    "group": 0
  },
  {
    "compound": "COc1cc(OC)cc(C2=[O+][B-](F)(F)OC(c3ccc4ccccc4c3)=C2)c1",
    "group": 0
  },
  {
    "compound": "Cc1cc2ccccc2c2c1c1ccccc1n2-c1ncccn1",
    "group": 0
  }
]

Q. Can `C(#Cc1ncc(-c2ccccc2)o1)c1cccnc1` be said to have photoluminescence quantum yield at or above 0.1?
A. 1

Q. Can `Cc1ccc(N(c2ccc(C)cc2)c2ccc(-c3ccc4c(c3)C(=O)c3ccccc3C4=O)cc2)cc1` be said to have photoluminescence quantum yield at or above 0.1?
A. 0

* * *

test: photoluminescence quantum yield (fraction); solvent given as SMILES; conditions: in CN(C)C=O
parameter: photoluminescence quantum yield
The answer should be written as a number, with no unit following it.

Q. Item `CCCCOc1ccc(-c2cc3c(o2)c(-c2ccc(OCCCC)cc2)c2n3[B-](F)(F)[N+]3=Cc4c(-c5ccc(OCCCC)cc5)c5oc(-c6ccc(OCCCC)cc6)cc5n4[B-](F)(F)[N+]3=C2)cc1` has what recorded photoluminescence quantum yield?
A. 0.32

* * *

test: photoluminescence quantum yield (fraction); solvent given as SMILES; details: in ClCCl
parameter: photoluminescence quantum yield
The answer should be written as a number, with no unit following it.

The examples below pair each entry with its known result.
[
  {
    "smiles.notation": "COC(=O)c1cccc2c1C#Cc1c(N)cccc1OCCCO2",
    "photoluminescence quantum yield": 0.14
  },
  {
    "smiles.notation": "COc1ccc(O)c(-c2nc(C)c3n2CCCC3)c1",
    "photoluminescence quantum yield": 0.11
  }
]

For the next question, use this compound.
Q. Item `N#CC1=c2c3cccc4cccc(c43)n2[B-](F)(F)[n+]2ccccc21` has what recorded photoluminescence quantum yield?
A. 0.88

* * *

experiment: photoluminescence quantum yield (fraction); solvent given as SMILES; conditions: in Cc1ccccc1
Each record here notes measured photoluminescence quantum yield.
The answer should be written as a number, with no unit following it.

The examples below pair each entry with its known result.
[
  {
    "molecule": "c1ccc(-c2nc(-c3ccccc3)nc(-c3ccc(-n4c5ccccc5c5cc6c(cc54)C4c5ccccc5C6c5ccccc54)cc3)n2)cc1",
    "photoluminescence quantum yield": 0.77
  },
  {
    "molecule": "O=C1c2ccc(-c3ccc(N(c4ccccc4)c4ccccc4)cc3)cc2C(=O)c2ccc(-c3ccc(N(c4ccccc4)c4ccccc4)cc3)cc21",
    "photoluminescence quantum yield": 0.59
  },
  {
    "molecule": "O=C1c2cccc3cc4ccccc4c(c23)C(=O)N1Cc1ccccn1",
    "photoluminescence quantum yield": 0.69
  },
  {
    "molecule": "O=P1(c2ccccc2)c2ccc(N3c4ccccc4Oc4ccccc43)cc2-c2cc(N3c4ccccc4Oc4ccccc43)ccc21",
    "photoluminescence quantum yield": 0.83
  },
  {
    "molecule": "CC1=C(c2cccs2)C(C)=[N+]2C1=C(c1ccc(OS(=O)(=O)c3ccc([N+](=O)[O-])cc3[N+](=O)[O-])cc1)c1c(C)c(-c3cccs3)c(C)n1[B-]2(F)F",
    "photoluminescence quantum yield": 0.059
  },
  {
    "molecule": "CCCCc1ccc(-n2c3c4cc(F)ccc4nnc3c3c2c2nnc4ccc(F)cc4c2n3-c2ccc(CCCC)cc2)cc1",
    "photoluminescence quantum yield": 0
  }
]

Q. Item `CC(C)(C)c1ccc2c(c1)sc1[n+]2[B-](F)(F)n2c(c3cccc4cccc2c43)=N1` has what recorded photoluminescence quantum yield?
A. 0.86

Q. Item `CC(=O)N(Cc1ccccn1)c1c2ccccc2c2c3c(cccc13)C(=O)N(Cc1ccccn1)C2=O` has what recorded photoluminescence quantum yield?
A. 0.52

These entries and their values trace back to the Deep4Chem optical property database.
